targetEntity: Neuronal acetylcholine receptor; alpha4/beta2 (Homo sapiens, UniProt P17787+P43681)
Sequence (P17787 whole entry): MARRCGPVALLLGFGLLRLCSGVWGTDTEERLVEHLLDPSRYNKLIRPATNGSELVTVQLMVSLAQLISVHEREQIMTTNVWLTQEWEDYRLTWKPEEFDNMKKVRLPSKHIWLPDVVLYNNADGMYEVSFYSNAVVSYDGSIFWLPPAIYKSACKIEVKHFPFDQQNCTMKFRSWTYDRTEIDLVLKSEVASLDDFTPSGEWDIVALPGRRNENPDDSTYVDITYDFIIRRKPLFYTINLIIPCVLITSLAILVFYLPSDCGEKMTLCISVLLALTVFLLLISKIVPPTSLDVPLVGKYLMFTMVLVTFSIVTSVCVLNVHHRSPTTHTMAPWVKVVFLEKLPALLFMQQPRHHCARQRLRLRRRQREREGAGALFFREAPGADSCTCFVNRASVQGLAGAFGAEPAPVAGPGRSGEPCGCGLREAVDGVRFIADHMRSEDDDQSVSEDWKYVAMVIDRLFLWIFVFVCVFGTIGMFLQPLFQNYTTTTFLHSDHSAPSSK
Sequence (P43681 whole entry): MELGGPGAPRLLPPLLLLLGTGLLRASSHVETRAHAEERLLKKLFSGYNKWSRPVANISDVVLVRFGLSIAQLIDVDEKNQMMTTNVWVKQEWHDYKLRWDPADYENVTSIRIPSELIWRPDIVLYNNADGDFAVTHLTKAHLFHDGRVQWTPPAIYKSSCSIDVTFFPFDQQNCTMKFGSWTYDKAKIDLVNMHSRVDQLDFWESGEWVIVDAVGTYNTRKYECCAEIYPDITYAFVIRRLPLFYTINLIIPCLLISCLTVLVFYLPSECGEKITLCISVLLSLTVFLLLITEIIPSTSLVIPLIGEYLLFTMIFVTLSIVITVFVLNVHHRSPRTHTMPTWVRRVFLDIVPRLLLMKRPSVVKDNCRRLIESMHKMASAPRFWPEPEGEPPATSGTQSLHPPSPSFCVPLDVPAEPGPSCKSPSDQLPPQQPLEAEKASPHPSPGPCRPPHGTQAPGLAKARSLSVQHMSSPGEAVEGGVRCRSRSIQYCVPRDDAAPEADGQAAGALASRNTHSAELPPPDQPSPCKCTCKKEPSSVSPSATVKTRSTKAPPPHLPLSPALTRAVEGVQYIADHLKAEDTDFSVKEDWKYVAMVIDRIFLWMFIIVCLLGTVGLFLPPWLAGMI
assayNotes: Inhibition of alpha4beta2 nAChR
measuredAttribute: pIC50
// field semantics: pIC50 = negative decimal log of concentration (mol/L)

Enquiry: Give pIC50 for C(#Cc1cc(C#CCCC[n+]2cccc(-c3ccccc3)c2)c(C#CCCC[n+]2cccc(-c3ccccc3)c2)cc1C#CCCC[n+]1cccc(-c2ccccc2)c1)CCC[n+]1cccc(-c2ccccc2)c1
Return: 5.42

====

Measured pIC50 accompanies every entry in the list below.
targetEntity: Neuronal acetylcholine receptor; alpha9/alpha10 (Homo sapiens, UniProt Q9GZZ6+Q9UGM1)
Sequence (Q9UGM1 whole entry): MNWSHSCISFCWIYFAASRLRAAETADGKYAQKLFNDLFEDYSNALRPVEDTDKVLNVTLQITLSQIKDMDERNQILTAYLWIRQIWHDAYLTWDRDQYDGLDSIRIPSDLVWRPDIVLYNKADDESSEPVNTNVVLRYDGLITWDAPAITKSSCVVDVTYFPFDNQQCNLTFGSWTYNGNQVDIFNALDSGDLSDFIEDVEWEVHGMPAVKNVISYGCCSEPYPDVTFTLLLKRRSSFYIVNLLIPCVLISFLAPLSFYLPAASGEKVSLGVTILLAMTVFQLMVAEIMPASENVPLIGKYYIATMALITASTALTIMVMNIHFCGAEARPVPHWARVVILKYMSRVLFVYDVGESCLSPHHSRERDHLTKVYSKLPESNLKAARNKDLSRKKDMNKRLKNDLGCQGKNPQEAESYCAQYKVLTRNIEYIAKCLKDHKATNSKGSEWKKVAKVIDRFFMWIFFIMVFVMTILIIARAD
Sequence (Q9GZZ6 whole entry): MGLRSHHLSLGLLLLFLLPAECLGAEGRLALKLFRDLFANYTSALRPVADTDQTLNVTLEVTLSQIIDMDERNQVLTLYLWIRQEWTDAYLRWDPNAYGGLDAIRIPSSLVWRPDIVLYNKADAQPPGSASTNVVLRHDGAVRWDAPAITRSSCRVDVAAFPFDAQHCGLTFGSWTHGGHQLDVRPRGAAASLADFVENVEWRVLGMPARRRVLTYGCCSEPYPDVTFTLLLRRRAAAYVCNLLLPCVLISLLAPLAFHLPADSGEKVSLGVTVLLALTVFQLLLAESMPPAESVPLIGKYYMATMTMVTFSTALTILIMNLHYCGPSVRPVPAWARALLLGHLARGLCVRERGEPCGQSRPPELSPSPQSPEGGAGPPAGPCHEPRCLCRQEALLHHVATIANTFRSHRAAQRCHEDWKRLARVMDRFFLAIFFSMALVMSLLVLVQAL
assayNotes: Antagonist activity at alpha9/alpha10 nAChR expressed in Xenopus oocyte assessed as inhibition of ACh-gated current by voltage clamp electrophysiology assay
Quick note: pIC50 values are minus log10 of concentrations in mol/L.

Enquiry: Dear colleague, please send me the reported pIC50 for Cc1cc[n+](CC#Cc2ccc(-c3ccc(C#CC[n+]4ccc(C)c(C)c4)cc3)cc2)cc1C when you can.
Return: 7.80

Enquiry: Tell me its pIC50 given c1ccc(-c2ccc[n+](CCCCCc3cc(CCCCC[n+]4cccc(-c5ccccc5)c4)c(CCCCC[n+]4cccc(-c5ccccc5)c4)cc3CCCCC[n+]3cccc(-c4ccccc4)c3)c2)cc1 as the entry.
Return: 8.27

====

targetEntity: Neuronal acetylcholine receptor; alpha9/alpha10 (Homo sapiens) (UniProt Q9UGM1+Q9GZZ6)
assayNotes: Antagonist activity at alpha9/alpha10 nAChR expressed in Xenopus oocyte assessed as inhibition of ACh-gated current response at 100 nM by voltage clamp electrophysiology assay
Format: functional
Parameters: scale not given: the % may be the effect or the level left
Please use criterion met whenever Activity is not below 10%, and criterion not met whenever it is.

Use the examples below as a reference point.
c1ccc(-c2ccc[n+](CCCCCc3cc(CCCCC[n+]4cccc(-c5ccccc5)c4)cc(CCCCC[n+]4cccc(-c5ccccc5)c4)c3)c2)cc1 :: criterion not met
C(#Cc1cc(C#CCCC[n+]2ccc3ccccc3c2)c(C#CCCC[n+]2ccc3ccccc3c2)cc1C#CCCC[n+]1ccc2ccccc2c1)CCC[n+]1ccc2ccccc2c1 :: criterion met
Cc1cc[n+](CCCC#Cc2cccc(C#CCCC[n+]3ccc(C)c(C)c3)c2)cc1C :: criterion met
Cc1cc(C)c[n+](CCCCCc2cc(CCCCC[n+]3cc(C)cc(C)c3)cc(CCCCC[n+]3cc(C)cc(C)c3)c2)c1 :: criterion met
Cc1cc(C)c[n+](CCCc2ccc(-c3ccc(CCC[n+]4cc(C)cc(C)c4)cc3)cc2)c1 :: criterion met

Enquiry: Assess whether reported Activity for Cc1cc(C)c[n+](CCC#Cc2ccc(C#CCC[n+]3cc(C)cc(C)c3)cc2)c1 sits at 10% or higher.
Return: criterion met

Enquiry: Is reported Activity greater than or equal to 10% here: Cc1cc(C)c[n+](CCCC#Cc2cc(C#CCCC[n+]3cc(C)cc(C)c3)c(C#CCCC[n+]3cc(C)cc(C)c3)cc2C#CCCC[n+]2cc(C)cc(C)c2)c1
Return: criterion not met

====

targetEntity: Neuronal acetylcholine receptor; alpha3/beta4 (Homo sapiens, UniProt P30926+P32297)
Sequence (P30926 whole entry): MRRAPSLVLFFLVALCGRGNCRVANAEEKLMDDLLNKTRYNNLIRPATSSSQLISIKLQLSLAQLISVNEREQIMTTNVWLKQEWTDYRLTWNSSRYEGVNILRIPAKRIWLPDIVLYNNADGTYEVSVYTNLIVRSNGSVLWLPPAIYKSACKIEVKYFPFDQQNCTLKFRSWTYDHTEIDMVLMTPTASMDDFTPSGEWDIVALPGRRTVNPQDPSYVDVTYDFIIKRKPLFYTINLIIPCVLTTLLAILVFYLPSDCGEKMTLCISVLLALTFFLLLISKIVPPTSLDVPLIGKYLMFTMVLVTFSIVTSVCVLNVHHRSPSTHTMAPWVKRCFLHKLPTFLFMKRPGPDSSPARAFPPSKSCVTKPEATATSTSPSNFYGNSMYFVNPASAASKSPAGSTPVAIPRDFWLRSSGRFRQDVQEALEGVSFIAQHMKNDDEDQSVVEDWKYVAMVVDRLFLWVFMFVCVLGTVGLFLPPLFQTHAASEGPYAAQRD
Sequence (P32297 whole entry): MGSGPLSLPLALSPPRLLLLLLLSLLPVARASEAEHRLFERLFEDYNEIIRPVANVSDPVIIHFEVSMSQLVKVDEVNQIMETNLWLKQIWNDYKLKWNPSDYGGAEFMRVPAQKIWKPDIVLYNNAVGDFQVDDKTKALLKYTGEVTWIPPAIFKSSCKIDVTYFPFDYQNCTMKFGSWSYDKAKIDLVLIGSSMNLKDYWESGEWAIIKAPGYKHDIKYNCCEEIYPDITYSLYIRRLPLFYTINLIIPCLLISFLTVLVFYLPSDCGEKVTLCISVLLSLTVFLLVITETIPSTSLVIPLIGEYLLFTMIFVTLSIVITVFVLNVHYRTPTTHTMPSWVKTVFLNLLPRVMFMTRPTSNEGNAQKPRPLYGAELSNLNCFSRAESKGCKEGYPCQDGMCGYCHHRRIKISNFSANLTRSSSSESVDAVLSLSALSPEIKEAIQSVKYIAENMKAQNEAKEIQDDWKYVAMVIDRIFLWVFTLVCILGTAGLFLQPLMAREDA
assayNotes: Inhibition of alpha3beta4 nAChR
measuredAttribute: IC50 (nM)
Number in nM, nothing else.

Enquiry: Please list IC50 recorded for the molecule C(#Cc1cc(C#CCCC[n+]2cccc(-c3ccccc3)c2)c(C#CCCC[n+]2cccc(-c3ccccc3)c2)cc1C#CCCC[n+]1cccc(-c2ccccc2)c1)CCC[n+]1cccc(-c2ccccc2)c1
Return: 800

Value source: ChEMBL document CHEMBL1759897
